assay: Permeability of the compound in human Caco-2 cells across basolateral to apical side at pH 7.4 incubated for 2 hrs by LC-MS/MS analysis; format: ADME, cell-based; settings: Caco-2, pH 7.4, read-out: permeability
observable: Papp B→A at 2 h (×10⁻⁶ cm/s)

1: Cn1nc([C@@H]2O[C@H](CO)[C@H](O)[C@H](n3cc(-c4ccc(Br)c(F)c4F)nn3)[C@H]2O)n(-c2cc(Cl)ccc2C(F)(F)F)c1=S (stereo in doubt; 20)
2: OC[C@H]1O[C@@H](c2n[nH]c(=S)n2-c2cc(Cl)ccc2OC(F)(F)F)[C@H](O)[C@@H](n2cc(-c3ccc(Cl)c(F)c3F)nn2)[C@H]1O (stereo in doubt; 16)
Query block: Which is greater in Papp B→A at 2 h, the first item 1 or the second item 2 ? Your choice should be expressed through its label.
Result block: 1

----------
assay: Permeability of the compound at pH 5.5 incubated for 4 hrs by PAMPA; format: ADME; conditions: PAMPA, pH 5.5, read-out: permeability
observable: Papp at 4 h (×10⁻⁶ cm/s)

Recorded Papp at 4 h, per entry:
Papp at 4 h recorded for this compound, `OC[C@H]1O[C@@H](c2nncn2-c2cc(Cl)ccc2Cl)[C@H](O)[C@@H](n2cc(-c3cc(F)c(Cl)c(F)c3)nn2)[C@H]1O` , is 3.6

Reported Papp at 4 h ( Cn1nc([C@@H]2O[C@H](CO)[C@H](O)[C@H](n3cc(-c4ccc(Br)c(F)c4F)nn3)[C@H]2O)n(-c2cc(Cl)ccc2C(F)(F)F)c1=S (stereo in doubt; 20) ) = 12

The value of Papp at 4 h measured for the compound `CO[C@@H]1[C@@H](n2cc(-c3ccc(Cl)c(F)c3F)nn2)[C@@H](O)[C@@H](CO)O[C@H]1c1nncn1-c1cc(Cl)ccc1OC(F)(F)F` turned out to be 54

For this compound ( `OC[C@H]1O[C@@H](c2nncn2-c2cc(Cl)ccc2C(F)(F)F)[C@H](O)[C@@H](n2cc(-c3ccc(Cl)c(F)c3)nn2)[C@H]1O` ), measured Papp at 4 h is 1.8

What the record says about `OC[C@H]1O[C@@H](c2nncn2-c2cc(Cl)ccc2OC(F)(F)F)[C@H](O)[C@@H](n2cc(-c3ccc(Br)c(F)c3F)nn2)[C@H]1O` : Papp at 4 h is 21

Per the records, this compound ( OC[C@H]1O[C@@H](c2n[nH]c(=S)n2-c2cc(Cl)ccc2OC(F)(F)F)[C@H](O)[C@@H](n2cc(-c3ccc(Cl)c(F)c3F)nn2)[C@H]1O (stereo in doubt; 16) ) has Papp at 4 h equal to 1.1

1: CO[C@@H]1[C@@H](n2cc(-c3ccc(Br)c(F)c3)nn2)[C@@H](O)[C@@H](CO)O[C@H]1c1nncn1-c1cc(Cl)ccc1C(F)(F)F
2: CO[C@@H]1[C@@H](n2cc(-c3ccc(Br)c(F)c3F)nn2)[C@@H](O)[C@@H](CO)O[C@H]1c1nncn1-c1cc(Cl)ccc1C(F)(F)F
3: OC[C@H]1O[C@@H](c2nncn2-c2cc(Cl)ccc2C(F)(F)F)[C@H](OCC(F)(F)C(F)F)[C@@H](n2cc(-c3ccc(Br)c(F)c3F)nn2)[C@H]1O
Query block: Place the items in sequence of falling Papp at 4 h. Answer with the labels in sequence, matching the requested order.
Result block: 3, 2, 1

----------
assay: Permeability of the compound across basolateral to apical side in human Caco-2 cells assessed as drug recovery at pH 7.4 incubated for 2 hrs by LC-MS/MS analysis; type: ADME, cell-based; conditions: Caco-2, pH 7.4, read-out: Drug recovery
observable: recovery at 2 h (%)

The value of recovery at 2 h measured for the compound OC[C@H]1O[C@@H](c2n[nH]c(=S)n2-c2cc(Cl)ccc2OC(F)(F)F)[C@H](O)[C@@H](n2cc(-c3ccc(Cl)c(F)c3F)nn2)[C@H]1O (stereo in doubt; 16) turned out to be 81

Looking up Cn1nc([C@@H]2O[C@H](CO)[C@H](O)[C@H](n3cc(-c4ccc(Br)c(F)c4F)nn3)[C@H]2O)n(-c2cc(Cl)ccc2C(F)(F)F)c1=S (stereo in doubt; 20) , I see its recovery at 2 h listed as 80

----------
assay: Permeability of the compound at pH 7.4 incubated for 4 hrs by PAMPA; type: ADME; conditions: PAMPA, pH 7.4, read-out: permeability
observable: Papp at 4 h (×10⁻⁶ cm/s)

Some solved cases for reference:
# Papp at 4 h (molecule: `OC[C@H]1O[C@@H](c2nncn2-c2cc(Cl)ccc2Cl)[C@H](O)[C@@H](n2cc(-c3cc(F)c(Cl)c(F)c3)nn2)[C@H]1O` ) is 1.7

Given item `CO[C@@H]1[C@@H](n2cc(-c3ccc(Br)c(F)c3F)nn2)[C@@H](O)[C@@H](CO)O[C@H]1c1nncn1-c1cc(Cl)ccc1C(F)(F)F` , the value recorded as its Papp at 4 h is 28

// `OC[C@H]1O[C@@H](c2nncn2-c2cc(Cl)ccc2C(F)(F)F)[C@H](O)[C@@H](n2cc(-c3ccc(Cl)c(F)c3)nn2)[C@H]1O` : Papp at 4 h value = 2.1

// sample `OC[C@H]1O[C@@H](c2nncn2-c2cc(Cl)ccc2OC(F)(F)F)[C@H](O)[C@@H](n2cc(-c3ccc(Br)c(F)c3F)nn2)[C@H]1O` , its Papp at 4 h was 18

For reference, reported Papp at 4 h for `OC[C@H]1O[C@@H](c2nncn2-c2cc(Cl)ccc2OC(F)(F)F)[C@H](O)[C@@H](n2cc(-c3ccc(Cl)c(F)c3F)nn2)[C@H]1O` stands at 27

Kindly note the recorded Papp at 4 h for OC[C@H]1O[C@@H](c2n[nH]c(=S)n2-c2cc(Cl)ccc2C(F)(F)F)[C@H](O)[C@@H](n2cc(-c3ccc(Br)c(F)c3F)nn2)[C@H]1O (stereo in doubt; 18) , which is 0.1

Form: molecule = OC[C@H]1O[C@@H](c2n[nH]c(=S)n2-c2cc(Cl)ccc2OC(F)(F)F)[C@H](O)[C@@H](n2cc(-c3ccc(Cl)c(F)c3F)nn2)[C@H]1O (stereo in doubt; 16) ; Papp at 4 h = 0.2

// `CO[C@@H]1[C@@H](n2cc(-c3ccc(Br)c(F)c3)nn2)[C@@H](O)[C@@H](CO)O[C@H]1c1nncn1-c1cc(Cl)ccc1C(F)(F)F` : Papp at 4 h value = 22

// recorded Papp at 4 h for `OC[C@H]1O[C@@H](c2nncn2-c2cc(Cl)ccc2C(F)(F)F)[C@H](O)[C@@H](n2cc(-c3ccc(Br)c(F)c3F)nn2)[C@H]1O` : 7

A: OC[C@H]1O[C@@H](c2nncn2-c2cc(Cl)ccc2C(F)(F)F)[C@H](OCC(F)(F)C(F)F)[C@@H](n2cc(-c3ccc(Br)c(F)c3F)nn2)[C@H]1O
B: CO[C@@H]1[C@@H](n2cc(-c3ccc(Cl)c(F)c3F)nn2)[C@@H](O)[C@@H](CO)O[C@H]1c1nncn1-c1cc(Cl)ccc1OC(F)(F)F
Query block: // which entry reports the smaller Papp at 4 h, A or B ? Please reply using the label of the selected record.
Result block: B
